Numbers sourced from a melting point compilation (Tetko et al.; mined from patent text by program, amines drawn as free bases though some values may be those of a salt).

Property: melting point; scope: individual compounds

- Compound: "O[C@H]1c2cc(OCc3cccnc3)ccc2OC[C@H]1Cc1cccnc1 (relative stereo)"
  Val: "145 to 147 °C"
- Compound: "O=c1c(CO)coc2cc(OCCCN3CCC(c4noc5cc(F)ccc45)CC3)ccc12"
  Val: "200 to 202 °C"
- Compound: "CC12CCC(C(=O)O)=CC1=CCC1C2CCC2(C)C(C(=O)CCc3ccccc3)CCC12 (centres undefined)"
  Val: "218 to 220 °C"

Entry under review: COC1=C(OC)C(=O)C(CCCCCCCCCCCCCCCCCCCCCCO)=C(C)C1=O . Reported melting point? 89 to 90.5 °C

Entry under review: CCCCc1nn(CC(F)(F)F)c(C(=O)O)c1Cc1ccc2oc(-c3ccccc3-c3nnn[nH]3)c(Br)c2c1 . Reported melting point? 216 to 220 °C

Entry under review: CCN1C(C)=CC(=O)CS1(=O)=O . Reported melting point? 90 to 92 °C

---

Property: melting point; scope: individual compounds

- Compound: "CC(C)C[C@H](OC(=O)NC1CCCCC1)C(=O)OCc1ccccc1"
  melting point: "89 to 90 °C"

Entry under review: CCn1c(=O)c2c(-c3nc(C)no3)ncn2c2cccnc21 . Reported melting point? 251 to 252 °C

Entry under review: CS(=O)(=O)c1ccc(-c2cc(CCO)sc2-c2ccc(F)cc2)cc1 . Reported melting point? 102 to 108 °C

---

Property: melting point; scope: individual molecules

- Molecule: "Cc1c(Cl)c(C(C)(C)C)c(Cl)c(C)c1S(=O)(=O)Cl"
  Val: "148 °C"
- Molecule: "Fc1cccc(C2OC3(CCN(Cc4ccccc4)CC3)N3CCCCC23)c1 (stereo unspecified)"
  Val: "113 to 115 °C"
- Molecule: "CCOC(=O)c1ccc2c(c1)OC(CCCBr)C(=O)N2 (stereo unspecified)"
  Val: "118 to 119 °C"
- Molecule: "O=c1ccc2cc(-n3cnnc3)cc(C(F)(F)F)c2[nH]1"
  Val: "> 320 °C"
- Molecule: "COc1cc(C)nc(NC(=S)NNC(=O)c2ccccc2)n1"
  Val: "193 to 195 °C"

Please look at the following molecule next.
Entry under review: CCCc1coc2c(Cc3ccc(C(C)C)cc3)c(C)cc(C)c12 . Reported melting point? 89 to 90 °C

---

Property: melting point; scope: individual compounds

Worked examples, 6 compounds total:
- Compound: "Cc1cc(C)cc(-c2cnn3c(-c4cccc(-c5nnn(Cc6ccccn6)n5)c4)ccnc23)c1"
  melting point: "77 °C"
- Compound: "CCCOc1ccc(-c2cccc(/C=C/C(=O)OCC)c2)cc1OC"
  melting point: "66 to 68 °C"
- Compound: "C=C(c1ccc(C)cc1)c1ccc(N2CCCC2)cc1"
  melting point: "134 to 136 °C"
- Compound: "N#Cc1cc(Br)c(C(=O)CCl)s1"
  melting point: "126 to 128 °C"
- Compound: "N[C@@H](Cc1ccc(C(F)(F)F)cc1)[C@H](O)c1cccc(F)c1 (racemic)"
  melting point: "81 to 82 °C"
- Compound: "CS(=O)(=O)c1cccc(NC(=O)c2cnn3c(C(F)F)cc(-c4ccc(Cl)c(Cl)c4)nc23)c1"
  melting point: "262 °C"

Entry under review: O=C(NCCN1CCOCC1)N1c2ccccc2-c2noc3c2C1CCC3 (stereo not given) . Reported melting point? 176 to 178 °C

Entry under review: COc1ccc(C2(c3cccc(C)n3)OCCCO2)cc1OC . Reported melting point? 124 to 126 °C

Entry under review: Nc1ccc(C(=O)C=Cc2ccncc2)cc1 . Reported melting point? 207 °C

Entry under review: O=C1Cn2c(c(Cl)c3ccccc32)-c2ccccc2N1 . Reported melting point? 287 to 289 °C

Entry under review: COc1ccc(Cn2cnc3c(Cl)nc([N+](=O)[O-])nc32)cc1 . Reported melting point? 181 to 182 °C

Entry under review: O=C1CCN(C(=O)c2cc(-c3ccccc3)c(=O)n3c2-c2sccc2CC3)CC1 . Reported melting point? 218 to 220 °C

Entry under review: O=C(O)CNC(=O)CC1=C(n2nc(-c3c(-c4ccccc4)nn4ccccc34)ccc2=O)CCCC1 . Reported melting point? 190 to 192 °C

Entry under review: CC(=O)N[C@@H](C)COC1CCN(c2nc3cc(OCC4CC4)ccc3o2)CC1 . Reported melting point? 99 to 100 °C

Entry under review: Oc1ccc(Nc2nc(Cl)cc3ccccc23)cc1 . Reported melting point? 170 °C

Entry under review: CCn1ccc(=O)[nH]c1=O . Reported melting point? 150 °C

Entry under review: O=C(O)Cc1cccc(NC(=O)NCC(=O)N2[C@@H](c3cccc(O)c3)CC[C@H]2c2ccccc2)c1 (racemic) . Reported melting point? 166 °C

Entry under review: O=C(NN=Cc1cc(Cl)cc(Cl)c1O)c1cccc(OC(F)(F)F)c1 . Reported melting point? 180 to 182 °C

Entry under review: O=C1Cc2c([nH]c3cc(Cl)cc(Cl)c23)-c2ncccc2N1 . Reported melting point? > 330 °C

Entry under review: CC1(C)CCc2ncc([N+](=O)[O-])cc2C1 . Reported melting point? 99 to 101 °C

Entry under review: CC[C@H](C)[C@H](Nc1nc(C(=O)c2ccccc2)ns1)C(=O)N1CCC[C@H]1C(=O)O . Reported melting point? 132 to 134 °C

Entry under review: COc1ccc2c(-c3ccc(Cl)cc3F)noc2c1Cl . Reported melting point? 193 to 194 °C
